- method.summary: Conversion process: active dissolved in supernatant of centrifuged MAS/tannic acid conversion samples
- applied.conditions: in-situ tannate conversion, supernatant after 30 min mixing, centrifuged at 6500 rpm
Quick reference for Assay (% Dissolved) 30 mins among some compounds
quantity: Assay (% Dissolved) 30 mins

INSERT INTO measurements (compound, result) VALUES
  ('CNC[C@H](O)c1cccc(O)c1', '47.6%'),
  ('COc1ccc(CN(CCN(C)C)c2ccccn2)cc1', '0.11%'),
  ('CN(C)CCC(c1ccc(Cl)cc1)c1ccccn1 (stereo not shown)', '0.14%'),
  ('CCN(CC)CCOCCOC(=O)C1(c2ccccc2)CCCC1', '0.09%');
